- assay explanation: recombinant barcode read abundance after kanamycin selection (control-corrected) (log10(CPM+1)); higher = more efficient recombination; sequences stand for … in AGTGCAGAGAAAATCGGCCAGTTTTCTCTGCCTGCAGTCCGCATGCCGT…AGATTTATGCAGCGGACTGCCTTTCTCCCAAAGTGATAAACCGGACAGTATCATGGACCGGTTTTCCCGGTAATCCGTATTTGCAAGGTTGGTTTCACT; site = the 11-nt target;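 also: IS621 recombinase and bridge RNA in Escherichia coli cells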
Hi, to clarify the labels: rule met covers recombinant barcode read abundance (log10) from 0.2 upward, rule not met covers anything below 0.2.

For orientation, consider the following solved cases.
Ask | Does CGACAGTCTTGGGTTCTAACCTGTTGCGT (site CGACAGTCTAC) have a reported recombinant barcode read abundance (log10) of at least 0.2?
Reply | rule met

Ask | Does CTAAGAACTTGGGTTCTAACCTGTTGCAT (site CTAAGAACTAT) have a reported recombinant barcode read abundance (log10) of at least 0.2?
Reply | rule met

Ask | Does CGCCAGCCTTGGGTTCTAACCTGTTGCCT (site CGCCAGCCTAG) have a reported recombinant barcode read abundance (log10) of at least 0.2?
Reply | rule not met

Ask | Does AGGGAGACTTGGGTTCTAACCTGTTGCTC (site CACTTTGCTAG) have a reported recombinant barcode read abundance (log10) of at least 0.2?
Reply | rule not met

Ask | Does GTAAATGCTTGGGTTCTAACCTGTTGCCT (site GTAAGTGCTAG) have a reported recombinant barcode read abundance (log10) of at least 0.2?
Reply | rule not met

Ask | Does TAGCCATCTTGGGTTCTAACCTGTTGCTC (site TAGTCATCTGA) have a reported recombinant barcode read abundance (log10) of at least 0.2?
Reply | rule not met

***
Ask | Does GTTAGACCTTGGGTTCTAACCTGTTGCCT (site TGCCTCTCTTA) have a reported recombinant barcode read abundance (log10) of at least 0.2?
Reply | rule not met

Ask | Does AGGTGCTCTTGGGTTCTAACCTGTTGCCT (site AAGTGCTCTAG) have a reported recombinant barcode read abundance (log10) of at least 0.2?
Reply | rule not met

Ask | Does TAGAGAGCTTGGGTTCTAACCTGTTGCGG (site TAGAGAGCTCC) have a reported recombinant barcode read abundance (log10) of at least 0.2?
Reply | rule met

Ask | Does CTATTCCCTTGGGTTCTAACCTGTTGCCT (site CTATTCGCTAG) have a reported recombinant barcode read abundance (log10) of at least 0.2?
Reply | rule met

Ask | Does ACGGAGACTTGGGTTCTAACCTGTTGCAT (site GTACTACCTCG) have a reported recombinant barcode read abundance (log10) of at least 0.2?
Reply | rule not met

Ask | Does TAGTATCCTTGGGTTCTAACCTGTTGCCA (site TACTACCCTTG) have a reported recombinant barcode read abundance (log10) of at least 0.2?
Reply | rule not met

Ask | Does TAGGCTACTTGGGTTCTAACCTGTTGCAA (site TAGGCTACTTT) have a reported recombinant barcode read abundance (log10) of at least 0.2?
Reply | rule met

Ask | Does TAGCCTGCTTGGGTTCTAACCTGTTGCCT (site TAGGCTGCTAG) have a reported recombinant barcode read abundance (log10) of at least 0.2?
Reply | rule not met
